Taken from patent US8420657B2.

- study target: cMet (Homo sapiens)
- Construct: using the recombinant domains of cMet, cKit, ALK and PDGFRalpha kinases
- Sequence (P08581 1078-1345 limits assumed): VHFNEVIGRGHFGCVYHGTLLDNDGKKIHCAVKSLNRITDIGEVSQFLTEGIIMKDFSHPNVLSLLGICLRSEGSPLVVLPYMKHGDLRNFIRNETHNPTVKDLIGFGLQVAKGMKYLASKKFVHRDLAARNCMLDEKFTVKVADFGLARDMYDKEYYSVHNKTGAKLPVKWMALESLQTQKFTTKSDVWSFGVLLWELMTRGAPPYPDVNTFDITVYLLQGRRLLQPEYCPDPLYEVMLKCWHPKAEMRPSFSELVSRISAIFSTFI
- procedure summary: cMet LanthaScreen TR-FRET kinase phosphorylation assay
- Assay type: biochemical
- details: recombinant kinase domain
property name: IC50 (µM)
# number only, unit µM dropped from output

- Cn1cc(Nc2ncc3ccn(-c4ccc(CC(=O)N5CCOCC5)cc4)c3n2)cn1: 3.6
- Cc1ccc(Nc2ncc3ccn(-c4ccc(C(=O)N5CCOCC5)cc4)c3n2)cn1: 8.2

Moving on to the next compound.
What value of measured IC50 is listed for CN1CCN(c2ccc(Nc3ncc4ccn(-c5ccc(C#N)cc5)c4n3)cn2)CC1 ?
1.4
